System: Amaranthus palmeri (AMAPA)
Assay: Pre-emergence Test (Table B1)
Type: in vivo
Conditions: lower rate of 250 g per hectare, evaluated after 13 days
Reported values of percentage damage caused to the plant, AMAPA for individual entries
test.readout: percentage damage caused to the plant, AMAPA

> print(dat)
                                   molecule  value.observed
1  CC#CC(C)OC(=O)c1cc(-c2c(C)n(CC)c(-c3ccc(Cl)c(Cl)c3)c(C(=O)O)c2=O)c(F)cc1Cl (stereo not drawn)   5 (5=81-100%)
2  CCn1c(C)c(-c2cc(C(=O)OC3CC3)c(Cl)cc2F)c(=O)c(C(=O)O)c1-c1ccc(C#N)c(F)c1   5 (5=81-100%)
3  CCn1c(C)c(-c2cc(C(=O)OC(C)CC(=O)OC)c(Cl)cc2F)c(=O)c(C(=O)O)c1-c1ccc(Cl)c(Cl)c1 (stereo not drawn)     1 (1=0-20%)
4  CCn1c(C)c(-c2cc(C(=O)OC(C)C#N)c(Cl)cc2F)c(=O)c(C(=O)O)c1-c1ccc(Cl)c(Cl)c1 (stereo not drawn)   5 (5=81-100%)
5  C#CCC(C)OC(=O)c1cc(-c2c(C)n(CC)c(-c3ccc(Cl)c(Cl)c3)c(C(=O)O)c2=O)c(F)cc1Cl (stereo not drawn)               0
6  CCn1c(C)c(-c2cc(C(=O)OC3CC3)c(Cl)cc2F)c(=O)c(C(=O)O)c1-c1ccc(C#N)c(Cl)c1   5 (5=81-100%)

###

Each entry below carries its recorded percentage damage caused to the plant, ECHCG.
System: Echinochloa crus-galli (ECHCG)
Test: Pre-emergence Test (Table B1)
Format: in vivo
Design: key: 5=81-100%; 4=61-80%; 3=41-60%; 2=21-40%; 1=0-20%; 0=inactive
Conditions: lower rate of 250 g per hectare, evaluated after 13 days
test.readout: percentage damage caused to the plant, ECHCG

> print(dat)
                                   compound  value.observed
1  C#CCC(C)OC(=O)c1cc(-c2c(C)n(CC)c(-c3ccc(Cl)c(Cl)c3)c(C(=O)O)c2=O)c(F)cc1Cl (stereo not drawn)               0
2  CCn1c(C)c(-c2cc(C(=O)OC3CC3)c(Cl)cc2F)c(=O)c(C(=O)O)c1-c1ccc(C#N)c(F)c1               0
3  CCn1c(C)c(-c2cc(C(=O)OC(C)CC(=O)OC)c(Cl)cc2F)c(=O)c(C(=O)O)c1-c1ccc(Cl)c(Cl)c1 (stereo not drawn)               0
4  CCn1c(C)c(-c2cc(C(=O)OC(C)C#N)c(Cl)cc2F)c(=O)c(C(=O)O)c1-c1ccc(Cl)c(Cl)c1 (stereo not drawn)               0
5  CCn1c(C)c(-c2cc(C(=O)OC3CC3)c(Cl)cc2F)c(=O)c(C(=O)O)c1-c1ccc(C#N)c(Cl)c1               0
6  CC#CC(C)OC(=O)c1cc(-c2c(C)n(CC)c(-c3ccc(Cl)c(Cl)c3)c(C(=O)O)c2=O)c(F)cc1Cl (stereo not drawn)     1 (1=0-20%)

###

Tested on: Setaria faberi (SETFA)
Test: Post-emergence Test (Table B2)
Assay type: in vivo
Conditions: 1000 g/ha, evaluated after 13 days
test.readout: percentage damage caused to the plant, SETFA

> print(dat)
                                   compound  value.observed
1  C=C(C)COC(=O)c1cc(-c2c(C)n(CC)c(-c3ccc(Cl)c(Cl)c3)c(C(=O)O)c2=O)c(F)cc1Cl    4 (4=61-80%)
2  CCn1c(C)c(-c2cc(C(=O)OC(C)C(F)(F)F)ccc2F)c(=O)c(C(=O)O)c1-c1ccc(Cl)c(Cl)c1 (stereo not shown)    4 (4=61-80%)
3  C#CC(C)OC(=O)c1cc(-c2c(C)n(CC)c(-c3ccc(Cl)c(Cl)c3)c(C(=O)O)c2=O)c(F)cc1Cl (stereo not shown)   5 (5=81-100%)
4  C=CCC(C)OC(=O)c1ccc(F)c(-c2c(C)n(CC)c(-c3ccc(Cl)c(Cl)c3)c(C(=O)O)c2=O)c1 (stereo not shown)    2 (2=21-40%)

###

Tested on: Ipomoea hederacea (IPOHE)
Test: Post-emergence Test (Table B2)
Assay type: in vivo
Conditions: 1000 g/ha, evaluated after 13 days
test.readout: percentage damage caused to the plant, IPOHE

> print(dat)
                                    compound              target.entity  value.observed
 1  CCn1c(C)c(-c2cc(C(=O)OC(C)C3CC3)ccc2F)c(=O)c(C(=O)O)c1-c1ccc(Cl)c(Cl)c1 (stereo not shown)  Ipomoea hederacea (IPOHE)     1 (1=0-20%)
 2  C#CC(C)OC(=O)c1cc(-c2c(C)n(CC)c(-c3ccc(Cl)c(Cl)c3)c(C(=O)O)c2=O)c(F)cc1Cl (stereo not shown)  Ipomoea hederacea (IPOHE)    4 (4=61-80%)
 3  CCn1c(C)c(-c2cc(C(=O)OC(C)CF)ccc2F)c(=O)c(C(=O)O)c1-c1ccc(Cl)c(Cl)c1 (stereo not shown)  Ipomoea hederacea (IPOHE)     1 (1=0-20%)
 4  C#CCOC(=O)c1cc(-c2c(C)n(CC)c(-c3ccc(Cl)c(Cl)c3)c(C(=O)O)c2=O)c(F)cc1Cl  Ipomoea hederacea (IPOHE)    4 (4=61-80%)
 5  CCn1c(C)c(-c2cc(C(=O)OC(C)C3CCCC3)ccc2F)c(=O)c(C(=O)O)c1-c1ccc(Cl)c(Cl)c1 (stereo not shown)  Ipomoea hederacea (IPOHE)               0
 6  C=CCOC(=O)c1cc(-c2c(C)n(CC)c(-c3ccc(Cl)c(Cl)c3)c(C(=O)O)c2=O)c(F)cc1Cl  Ipomoea hederacea (IPOHE)    4 (4=61-80%)
 7  CCn1c(C)c(-c2cc(C(=O)OC(C)C(C)=O)ccc2F)c(=O)c(C(=O)O)c1-c1ccc(Cl)c(Cl)c1 (stereo not shown)  Ipomoea hederacea (IPOHE)     1 (1=0-20%)
 8  CCC#CC(C)OC(=O)c1ccc(F)c(-c2c(C)n(CC)c(-c3ccc(Cl)c(Cl)c3)c(C(=O)O)c2=O)c1 (stereo not shown)  Ipomoea hederacea (IPOHE)    3 (3=41-60%)
 9  CC#CC(C)OC(=O)c1ccc(F)c(-c2c(C)n(CC)c(-c3ccc(Cl)c(Cl)c3)c(C(=O)O)c2=O)c1 (stereo not shown)  Ipomoea hederacea (IPOHE)    2 (2=21-40%)
10  C=CC(C)OC(=O)c1cc(-c2c(C)n(CC)c(-c3ccc(Cl)c(Cl)c3)c(C(=O)O)c2=O)c(F)cc1Cl (stereo not shown)  Ipomoea hederacea (IPOHE)    3 (3=41-60%)
11  CCn1c(C)c(-c2cc(C(=O)OC3CCCC3)c(Cl)cc2F)c(=O)c(C(=O)O)c1-c1ccc(Cl)c(Cl)c1  Ipomoea hederacea (IPOHE)    4 (4=61-80%)
12  CCn1c(C)c(-c2cc(C(=O)OC3CCC3)c(Cl)cc2F)c(=O)c(C(=O)O)c1-c1ccc(Cl)c(Cl)c1  Ipomoea hederacea (IPOHE)    2 (2=21-40%)
13  C#CC(C)OC(=O)c1ccc(F)c(-c2c(C)n(CC)c(-c3ccc(Cl)c(Cl)c3)c(C(=O)O)c2=O)c1 (stereo not shown)  Ipomoea hederacea (IPOHE)    2 (2=21-40%)
14  CCn1c(C)c(-c2cc(C(=O)OC(C)C(F)(F)F)ccc2F)c(=O)c(C(=O)O)c1-c1ccc(Cl)c(Cl)c1 (stereo not shown)  Ipomoea hederacea (IPOHE)     1 (1=0-20%)
15  CCn1c(C)c(-c2cc(C(=O)OC(C)COC)c(Cl)cc2F)c(=O)c(C(=O)O)c1-c1ccc(Cl)c(Cl)c1 (stereo not shown)  Ipomoea hederacea (IPOHE)   5 (5=81-100%)
16  C=CCC(C)OC(=O)c1ccc(F)c(-c2c(C)n(CC)c(-c3ccc(Cl)c(Cl)c3)c(C(=O)O)c2=O)c1 (stereo not shown)  Ipomoea hederacea (IPOHE)    2 (2=21-40%)
17  CCOCC(C)OC(=O)c1ccc(F)c(-c2c(C)n(CC)c(-c3ccc(Cl)c(Cl)c3)c(C(=O)O)c2=O)c1 (stereo not shown)  Ipomoea hederacea (IPOHE)               0
18  C=C(C)COC(=O)c1cc(-c2c(C)n(CC)c(-c3ccc(Cl)c(Cl)c3)c(C(=O)O)c2=O)c(F)cc1Cl  Ipomoea hederacea (IPOHE)    2 (2=21-40%)
19  CCn1c(C)c(-c2cc(C(=O)OC(C)CN(C)C)ccc2F)c(=O)c(C(=O)O)c1-c1ccc(Cl)c(Cl)c1 (stereo not shown)  Ipomoea hederacea (IPOHE)               0

Data credit: patent US20260060250A1
